Measured growth inhibition, listed per entry.
test: NCI Yeast Anticancer Drug Screen. Data for the mec2-1 strain (AID 157); conditions: S. cerevisiae mec2-1 strain, at 50.0 µM, active compounds read high
About 79,000 compounds went through this panel and 15% of them were active in at least one assay; those are over-represented in the sample as a whole.
// units = %; emit number, no label

Look at this compound and give its reported growth inhibition. `CNC(=O)OCc1c(COC(=O)NC)c2n(c1C)-c1ccc(OC)cc1CCC2`
89.1

Look at this compound and give its reported growth inhibition. CCCCCCCCCCCC1N=C(N)NC(CCCO)=C1C(=O)OC (configuration not stated)
91.8

Look at this compound and give its reported growth inhibition. `Cc1cc2c3ccccc3c3ccccc3c2nn1`
21.8

Look at this compound and give its reported growth inhibition. O=C1c2cccnc2C(=O)C2C3C=CC(C3)C12 (configuration not stated)
99.5

Look at this compound and give its reported growth inhibition. `COc1ccc(C(=O)c2ccccc2C(=O)c2ccccc2OC)cc1`
10.1

Others:
Look at this compound and give its reported growth inhibition. `NC1=NNC2(C(N)=N1)c1ccccc1-c1ccccc12`
71.9

Look at this compound and give its reported growth inhibition. `Cc1nc2ccc(N=NN(C)C)cc2[nH]1`
91.3

Look at this compound and give its reported growth inhibition. `Cc1cc(C(C)(C)C)c(OCCCN2CCOCC2)c(C(C)(C)C)c1`
59.5

Look at this compound and give its reported growth inhibition. `S=C1SCN(C2CCCCC2)CN1C1CCCCC1`
63.5

Look at this compound and give its reported growth inhibition. `COC(=O)/C=C(/CC(=O)OC)C(=O)OC`
9.4

Look at this compound and give its reported growth inhibition. `CCN(CC)CCOc1cc(C)c2cc(Cc3ccccc3)ccc2n1`
82.7

Look at this compound and give its reported growth inhibition. `CC(C)c1ccc(NC(=S)NC(=O)c2ccccc2)cc1`
42

---

assay: NCI Yeast Anticancer Drug Screen. Data for the rad50EPP+ strain (AID 151);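 note: 0% = growth of vehicle-treated control cultures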; details: S. cerevisiae rad50 mutant strain, at 100.0 µM, active compounds read high
This is part of a sample that, as a whole, favours compounds with a hit. Of some 79,000 tested, about 15% had one in any assay.
experimentalEndpoint: growth inhibition (%)
// units = %; emit number, no label

Look at this molecule and give its reported growth inhibition. `CC1=CC(=C(c2ccc(N)cc2)c2ccc(N)cc2)C=CC1=N`
51

Look at this molecule and give its reported growth inhibition. `Cc1cc(S(=O)(=O)Nc2nnc3cnc4ccccc4n23)c(S)cc1Cl`
-59

Look at this molecule and give its reported growth inhibition. `CN(C)CCNc1ccc2ncnc3c2c1C(=O)c1ccccc1-3`
95

Look at this molecule and give its reported growth inhibition. `O=C1NC(SSC2=NNC3(C(=O)N2)c2ccccc2-c2ccccc23)=NNC12c1ccccc1-c1ccccc12`
63

Look at this molecule and give its reported growth inhibition. COc1ccc(C(NCCNC(c2ccc(OC)c(OC)c2)c2cc3c(cc2O)OCO3)c2cc3c(cc2O)OCO3)cc1OC (centres undefined)
97

Look at this molecule and give its reported growth inhibition. `Cc1cc(C)nc(NS(=O)(=O)c2ccc(Nc3c4ccccc4nc4c(C(=O)NCCO)cccc34)cc2)n1`
-14

Look at this molecule and give its reported growth inhibition. `COc1cc([C@@H]2c3cc4c(cc3[C@@H](Nc3ccc(NC(=O)c5cc([N+](=O)[O-])cn5C)cc3)[C@H]3COC(=O)[C@H]23)OCO4)cc(OC)c1O`
22

Look at this molecule and give its reported growth inhibition. `S=C1SCN(C2CCCCC2)CN1C1CCCCC1`
88

Others:
Look at this molecule and give its reported growth inhibition. `CN(C)Cc1cc(N=Nc2ccc(Cl)cc2)ccc1OC(=O)c1ccccc1`
41
